// provenance: patent US20220339270A1

- TARGET OR SYSTEM: T1, wild-type tau (441 amino acids; tau441; NP_005901.2) (human, UniProt P10636 1-758)
- T1 construct: Unphosphorylated recombinant tau441 used in the wild-type tau ELISA; also called wt tau441; wtTau
- T1 sequence (P10636 other isoform, or with tags, fused parts or gaps limits assumed): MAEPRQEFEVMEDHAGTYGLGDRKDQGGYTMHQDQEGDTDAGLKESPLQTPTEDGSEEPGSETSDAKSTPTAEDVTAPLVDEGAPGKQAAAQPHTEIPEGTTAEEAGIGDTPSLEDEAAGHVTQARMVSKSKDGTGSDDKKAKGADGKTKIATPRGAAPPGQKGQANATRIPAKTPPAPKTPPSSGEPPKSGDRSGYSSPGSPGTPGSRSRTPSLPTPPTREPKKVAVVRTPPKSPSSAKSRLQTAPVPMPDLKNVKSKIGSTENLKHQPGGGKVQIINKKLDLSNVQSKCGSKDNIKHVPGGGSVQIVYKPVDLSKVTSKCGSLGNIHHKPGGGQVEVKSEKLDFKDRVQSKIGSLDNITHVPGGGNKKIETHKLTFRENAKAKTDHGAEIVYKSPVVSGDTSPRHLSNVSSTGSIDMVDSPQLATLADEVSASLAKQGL
- PROCEDURE TEXT: wild-type tau ELISA, 293 cell supernatant
MEASUREMENT TYPE: binding result

IPN002 scFv-HA expressed from TAU_ITR139 (CAG, HL, (G4S)3) (scFv, also called CAG-IPN003-HL-G4S3; H(G4S)3L) scFv: EVHLVESGGALVKPGGSLKLSCAASGFSFSKYGMSWVRQTPDKRLEWVATISSSGSRTYYPDSVKGQFTISRDNAKNTLYLQMSSLKSEDTAMYYCSISWDGAMDYWGQGTSVTVSSGGGGSGGGGSGGGGSDVLMTQTPLSLPVSLGDQASISCKSSQSIVHSNGNTYLEWYLQKPGQSPKLLVYKVSNRFSGVPDRFSGSGSGTDFTLKISRVEAEDLGTYYCFQGSLVPWAFGGGTKLEIK : binds
IPN002 scFv-HA expressed from TAU_ITR137 (CAG, HL, G4S) (scFv, also called CAG-IPN002-HL-G4S; H(G4S)L) scFv: EVHLVESGGALVKPGGSLKLSCAASGFSFSKYGMSWVRQTPDKRLEWVATISSSGSRTYYPDSVKGQFTISRDNAKNTLYLQMSSLKSEDTAMYYCSISWDGAMDYWGQGTSVTVSSGGGGSDVLMTQTPLSLPVSLGDQASISCKSSQSIVHSNGNTYLEWYLQKPGQSPKLLVYKVSNRFSGVPDRFSGSGSGTDFTLKISRVEAEDLGTYYCFQGSLVPWAFGGGTKLEIK : binds
